molecular target: UniProtKB P02829
Sequence (P02829 whole entry): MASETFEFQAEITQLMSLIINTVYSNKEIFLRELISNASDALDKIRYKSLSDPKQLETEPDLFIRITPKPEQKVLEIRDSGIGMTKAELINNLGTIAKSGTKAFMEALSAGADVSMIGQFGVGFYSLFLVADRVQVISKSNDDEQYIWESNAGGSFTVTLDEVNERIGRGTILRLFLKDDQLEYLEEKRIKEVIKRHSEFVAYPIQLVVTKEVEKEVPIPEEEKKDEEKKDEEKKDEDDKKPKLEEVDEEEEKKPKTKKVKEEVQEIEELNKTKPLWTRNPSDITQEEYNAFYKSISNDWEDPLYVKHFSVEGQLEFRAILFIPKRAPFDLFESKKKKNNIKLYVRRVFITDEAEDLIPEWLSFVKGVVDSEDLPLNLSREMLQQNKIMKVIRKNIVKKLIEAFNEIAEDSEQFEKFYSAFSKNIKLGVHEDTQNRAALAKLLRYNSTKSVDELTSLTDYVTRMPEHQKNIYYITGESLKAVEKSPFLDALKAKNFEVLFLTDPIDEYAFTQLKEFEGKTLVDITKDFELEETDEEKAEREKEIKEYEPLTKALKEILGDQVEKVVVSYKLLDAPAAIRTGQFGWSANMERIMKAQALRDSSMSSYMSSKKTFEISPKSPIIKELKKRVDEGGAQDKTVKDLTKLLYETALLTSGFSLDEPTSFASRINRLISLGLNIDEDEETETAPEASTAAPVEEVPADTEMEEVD
Recorded Metric: Kd
Put your answer as a value accompanied by its unit after it.

Find the measured Kd: item COC(=O)c1c(O)cc(O)c(Cl)c1CCC(=O)NC1=CC(=O)C(OC)=CC1=O [Radamide] , target or system UniProtKB P02829.
870 nM

Values were extracted from patent US8685966B2.
